Hey, just so you know, these numbers are from the supplement of paper PMC10567573.

B1: MIA2 (parent)
chain: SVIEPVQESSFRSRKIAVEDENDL

variants of: B1; assay: protein stability index of a GFP-peptide fusion (GPS, HEK-293T) (PSI 1-6); higher = more stable; conditions: c terminus: a fixed tail appended;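 further: lentivirally expressed fusions sorted by FACS into six bins by GFP to DsRed ratio, PSI derived from sequencing read proportions per bin multiplied by bin number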
In this section, each of the variants is paired with its reported protein stability index.
Reply briefly: the number, and no unit.

Consider the following illustrative entries.
>  <mutation>
R12K

>  <protein stability index>
5.42

$$$$
>  <mutation>
S13E

>  <protein stability index>
5.3

$$$$
>  <mutation>
E21M

>  <protein stability index>
4.32

$$$$

# get_value(readout='protein stability index', item= `S13P` )
5.18
